# credit: PubChem BioAssay (NCATS)

- TEST NAME: Primary qHTS for inhibitors of nuclear receptor binding SET domain protein 2 (NSD2) in an isogenic RCH-ACV NSD2 p.E1099K mutant (9B) (AID 1645876); note: nearly all actives have a fitted effect of over 70% in size
- SETUP CONDITIONS: RCH-ACV (leukaemia line) NSD2 E1099K (9B) viability, CellTiter-Glo, 72 h; series mostly up to 44.9 µM
Records with an inconclusive call do not appear. Active and inactive are the calls of the source. Calls come from the whole dose curve; as a rule, active = well fitted inhibition curve with a large enough effect; inconclusive = small, poorly fitted or top-dose-only effect; inactive = flat fitted curve, though single readings scatter.
Assign a class; possible classes are 1 for active, -1 for inactive

COMPOUND | CLASSIFICATION
CCN(CC)CCOc1ccc2c(c1)C(=O)c1cc(OCCN(CC)CC)ccc1-2 | 1
CN(C)CCOC(=O)C(c1ccccc1)C1(O)CCCC1 (stereo unspecified) | -1
CC(=O)N[C@@H](CCC(=O)O)C(=O)O | -1
COc1cc([C@H]2Oc3cc([C@H]4Oc5cc(O)cc(O)c5C(=O)[C@@H]4O)ccc3O[C@@H]2CO)ccc1O | -1
O=S(=O)(O)c1ccc(O)cc1 | -1

// switching to the query compound
Tell me the recorded outcome of this test for `COc1ccc(CN(CCN(C)C)c2ncccn2)cc1` .
-1

###

- Test system: ICS
- TEST NAME: qHTS profiling for inhibitors of Plasmodium falciparum proliferation (AID 504749); note: nearly all actives have a fitted effect of over 60% in size
- SETUP CONDITIONS: P. falciparum in erythrocytes, SYBR Green DNA, 72 h; series mostly up to 28.7 µM
Records with an inconclusive call do not appear. Activity calls are given as the source filed them. Calls come from the whole dose curve; as a rule, active = well fitted inhibition curve with a large enough effect; inconclusive = small, poorly fitted or top-dose-only effect; inactive = flat fitted curve, though single readings scatter.
Assign a class; possible classes are active, inactive

Tell me the recorded outcome of this test for `Cn1c(=O)c2[nH]c(Br)nc2n(C)c1=O` .
inactive

Tell me the recorded outcome of this test for `O=C(O)Cc1csc(-c2ccc(Cl)cc2)n1` .
inactive

Tell me the recorded outcome of this test for `Cc1ccc(O)c([C@H](CCN(C(C)C)C(C)C)c2ccccc2)c1` .
active

Tell me the recorded outcome of this test for `CCOC(=O)[C@H](CCc1ccccc1)N[C@@H](C)C(=O)N1[C@H](C(=O)O)C[C@H]2CCCC[C@@H]21` .
inactive

Tell me the recorded outcome of this test for COP(=O)(OC)OC(c1ccc(Cl)cc1)P(=O)(OC)OC (stereo not drawn) .
inactive

Tell me the recorded outcome of this test for `CN1CCC[C@@H]1CCO[C@](C)(c1ccccc1)c1ccc(Cl)cc1` .
active

Tell me the recorded outcome of this test for `O=C(NCCc1c[nH]c2ccccc12)c1cccnc1` .
inactive

Tell me the recorded outcome of this test for `OC[C@H]1O[C@@H]2O[C@H]3[C@H](O)[C@@H](O)[C@@H](O[C@H]4[C@H](O)[C@@H](O)[C@@H](O[C@H]5[C@H](O)[C@@H](O)[C@@H](O[C@H]6[C@H](O)[C@@H](O)[C@@H](O[C@H]7[C@H](O)[C@@H](O)[C@@H](O[C@H]8[C@H](O)[C@@H](O)[C@@H](O[C@H]1[C@H](O)[C@H]2O)O[C@@H]8CO)O[C@@H]7CO)O[C@@H]6CO)O[C@@H]5CO)O[C@@H]4CO)O[C@@H]3CO` .
inactive

Tell me the recorded outcome of this test for `CC(C)Cn1cnc2c1c(=O)n(C)c(=O)n2C` .
inactive

###

- TEST NAME: Cell Viability - LYMP2-014 (AID 983);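 note: cells exposed to compound for 24 h at 37 °C; plate controls were DMSO only for no effect and 92 µM tetraoctylammonium bromide for full effect; nearly all actives have a fitted effect of over 50% in size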
- SETUP CONDITIONS: LYMP2-014 lymphoblastoid cells, viability qHTS; series mostly up to 92.2 µM
Inconclusive results are not listed. The source made the active and inactive calls. Calls come from the whole dose curve; as a rule, active = well fitted cell-killing curve with a large enough effect; inconclusive = small, poorly fitted or top-dose-only effect; inactive = flat fitted curve, though single readings scatter.

CHEMICAL STRING | outcome
C=C[C@H]1CN2CC[C@H]1C[C@@H]2[C@@H](O)c1ccnc2ccc(OC)cc12 | inactive
COc1cc([C@H]2Oc3cc([C@H]4Oc5cc(O)cc(O)c5C(=O)[C@@H]4O)ccc3O[C@@H]2CO)ccc1O | inactive
OC[C@H]1O[C@@H]2O[C@H]3[C@H](O)[C@@H](O)[C@@H](O[C@H]4[C@H](O)[C@@H](O)[C@@H](O[C@H]5[C@H](O)[C@@H](O)[C@@H](O[C@H]6[C@H](O)[C@@H](O)[C@@H](O[C@H]7[C@H](O)[C@@H](O)[C@@H](O[C@H]8[C@H](O)[C@@H](O)[C@@H](O[C@H]1[C@H](O)[C@H]2O)O[C@@H]8CO)O[C@@H]7CO)O[C@@H]6CO)O[C@@H]5CO)O[C@@H]4CO)O[C@@H]3CO | inactive
